IC50 for assorted compounds
tested on: peroxidase activity (TPO) in Nthy-ori 3-1 cell lysate
Reported Endpoint: IC50

Compound | Reported Endpoint | Recorded Measurement
CCCc1cc(=O)[nH]c(=S)[nH]1 [PTU, 6-propylthiouracil, reference compound] | IC50 | 11.7 µM
CC(C)(c1ccc(O)cc1)c1ccc(O)cc1 | IC50 | 120 µM
Cn1cc[nH]c1=S [MMI, Methimazole, reference compound] | IC50 | 3.91 µM
Oc1cccc(O)c1 | IC50 | 13.8 µM
O=C(c1ccc(O)cc1O)c1ccc(O)cc1O [BP2, 2,2′-4,4′-tetrahydroxy benzophenone] | IC50 | 38.5 µM
